Tested on: UACC-257 melanoma
assay_overview: NCI tumour cell line growth inhibition, 48 h
Known TGI of a selection of molecules

# annotated cases, reported TGI shown
[[record]]
molecule = "c1ccc(CN(Cc2ccccn2)Cn2cccn2)nc1"
parameter = "TGI"
result = "> 100 µM"

[[record]]
molecule = "CN(C)/C(=N/C(=O)Nc1ccccc1)SCc1ccccc1"
parameter = "TGI"
result = "> 100 µM"

[[record]]
molecule = "CC1=CC(=O)c2[nH]c3ccccc3c2C1=O"
parameter = "TGI"
result = "8.58 µM"

[[record]]
molecule = "C=C1C(=O)O[C@H]2[C@H](OC(C)=O)[C@@H](C)CCC/C(C)=C/CC[C@]3(CO3)[C@H](O)C[C@@H]12"
parameter = "TGI"
result = "26.1 µM"

[[record]]
molecule = "C/C(=N\\N=C(N)N)c1sc(-c2nc(C)c(/C(C)=N/N=C(N)N)s2)nc1C"
parameter = "TGI"
result = "> 100 µM"


Looking up Cn1cc(/C=C2\C(=O)Nc3cccnc32)c2ccccc21 , I see its TGI listed as > 25 µM

Looking up O=C(O)C1C2CC3CC2CC31 (configuration not stated) , I see its TGI listed as > 100 µM

Looking up O=C(O)CCN1C(=O)/C(=C/C(Cl)=C/c2ccccc2)SC1=S , I see its TGI listed as 7.81 µM

Looking up CCOc1cc(C=Nc2ccc(Oc3ccc(Cl)cc3)c(Cl)c2)ccc1O , I see its TGI listed as 80.8 µM

Looking up CCn1c(-c2cc3ccccc3cc2OC(=O)c2ccccc2)n[nH]c1=S , I see its TGI listed as > 50 µM

Looking up O=C(O)c1c(Cl)c(Cl)c(Cl)c(Cl)c1-c1c2cc(I)c(=O)c(I)c-2oc2c(I)c(O)c(I)cc12 , I see its TGI listed as 163 µM

Looking up O=C(n1c(=O)n(-c2ccc([N+](=O)[O-])cc2)c(=O)n1C(=O)C(Cl)(Cl)Cl)C(Cl)(Cl)Cl , I see its TGI listed as > 100 µM

Looking up CN(C)c1ccc(/C=N/Nc2ccc(-c3nc4ccccc4[nH]3)cc2)cc1 , I see its TGI listed as 25.8 µM

Looking up Cc1nc2ccccc2n1CCc1nc2ccccc2[nH]1 , I see its TGI listed as > 100 µM

Looking up Cc1cn(C2CC(O)C(Cn3cc(Cn4nc(Br)c(=O)[nH]c4=O)nn3)O2)c(=O)[nH]c1=O (configuration not stated) , I see its TGI listed as > 100 µM

Looking up O=C(O)CNS(=O)(=O)c1ccc(NC(=O)c2cccc([N+](=O)[O-])c2)cc1 , I see its TGI listed as > 100 µM

Looking up COc1ccc(C2=C(N)c3ccccc3C2=O)cc1 , I see its TGI listed as > 100 µM

----------
System: HOP-18 NSCLC
assay_overview: NCI tumour cell line growth inhibition, 48 h
Known TGI of a selection of compounds

# annotated cases, reported TGI shown
[[record]]
compound = "COC(=N)/C(=C1\\OC(N)=C(c2ccc(Cl)cc2)C1=O)c1ccc(Cl)cc1"
result = "> 100 µM"

[[record]]
compound = "COc1cccc2c1C(=O)c1c(O)c3c(c(O)c1C2=O)C[C@](O)(C(=O)CO)CC3OC1CC(N)C(OC2CCCCO2)C(C)O1 (stereo not given in full)"
result = "3 µM"

[[record]]
compound = "Cc1nc(Nc2ccc([N+](=O)[O-])cc2)sc1C(=O)/C=C/c1ccc(N(C)C)cc1"
result = "> 100 µM"

[[record]]
compound = "S=C1OC2C3C4CC5C3C(O1)C1C5C4C21 (stereo not given)"
result = "> 100 µM"

[[record]]
compound = "CC1=NN(C(=O)Cc2ccccc2)C(=O)/C1=C\\c1cccc(O)c1"
result = "> 100 µM"

[[record]]
compound = "O=C1CCCc2c(O)ccc(O)c21"
result = "> 100 µM"


Looking up Cc1cc(C(=O)NCCN(C)C)c2nc3ccccc3nc2c1 , I see its TGI listed as > 88.8 µM

Looking up C/C(=N\NC(=S)Nc1ccc([N+](=O)[O-])cc1S(=O)(=O)O)c1ccccn1 , I see its TGI listed as > 100 µM

Looking up Clc1cccc(C2SCc3nc4ccccc4n32)c1Cl (stereo not given) , I see its TGI listed as 33.1 µM

Looking up COc1ccc(-c2nc(N)nc(-c3cc(C)ccc3O)c2Cl)cc1 , I see its TGI listed as > 100 µM

Looking up OCC1CC2CC1C1(C2)OCCO1 (stereo not given) , I see its TGI listed as > 100 µM

Looking up C/C(=N\N=C(N)N)c1sc(-c2nc(C)c(/C(C)=N/N=C(N)N)s2)nc1C , I see its TGI listed as > 100 µM

Looking up C[P+](C)(CC(F)(F)F)c1ccccc1 , I see its TGI listed as > 100 µM

Looking up CN(c1ccccc1)c1c(-c2ccccc2)c(=O)oc2c1ccc1occc12 , I see its TGI listed as > 100 µM

Looking up CCC[CH2][Ge]([CH2]CCC)([CH2]CCC)[O]C(=O)CCl , I see its TGI listed as 24 µM
